# Organism: Rattus norvegicus
# measurementSetup: Cerebral cortex
# Description: Displacement of [3H]BTX-B from neuronal voltage-gated sodium channel in rat cerebral cortex synaptoneurosomes after 60 mins by scintillation counting
attributeMeasured: logIC50
Give the value as a plain number.

Quick one: logIC50 of CCCCOc1cc(C(=O)OCCN(CC)CC)ccc1N ?
0.46

Quick one: logIC50 of COC(=O)C1=C(C)NC(C)=C(C(=O)OCC(C)C)C1c1ccccc1[N+](=O)[O-] (stereo not given) ?
1.41

Quick one: logIC50 of CCCCCCC1(c2ccccc2)NC(=O)NC1=O (stereo not given) ?
1.11

Quick one: logIC50 of CC(C)COCC(CN(Cc1ccccc1)c1ccccc1)N1CCCC1 (stereo not given) ?
-0.08

Quick one: logIC50 of CCOC(=O)C1=C(C)NC(C)=C(C(=O)OC)C1c1cccc([N+](=O)[O-])c1 (stereo not given) ?
1.56

Quick one: logIC50 of CC(C)CNCCOC(=O)c1ccc(N)cc1 ?
1.74
